Data provenance: patent US20230295310A1

TESTED TARGET: human CD3 (human, UniProt P07766 23-207; P04234 22-171; P09693 23-182)
Sequence (P07766 23-207, chain 1 of 3): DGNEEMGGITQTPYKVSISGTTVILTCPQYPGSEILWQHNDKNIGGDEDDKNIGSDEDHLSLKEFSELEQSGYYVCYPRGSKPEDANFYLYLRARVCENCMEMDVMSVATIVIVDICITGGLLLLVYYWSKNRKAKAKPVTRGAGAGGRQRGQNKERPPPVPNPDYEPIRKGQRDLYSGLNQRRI
Sequence (P04234 22-171, chain 2 of 3): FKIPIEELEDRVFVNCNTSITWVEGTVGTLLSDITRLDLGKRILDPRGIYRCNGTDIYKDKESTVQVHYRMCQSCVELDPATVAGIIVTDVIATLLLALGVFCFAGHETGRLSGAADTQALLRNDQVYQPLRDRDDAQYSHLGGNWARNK
Sequence (P09693 23-182, chain 3 of 3): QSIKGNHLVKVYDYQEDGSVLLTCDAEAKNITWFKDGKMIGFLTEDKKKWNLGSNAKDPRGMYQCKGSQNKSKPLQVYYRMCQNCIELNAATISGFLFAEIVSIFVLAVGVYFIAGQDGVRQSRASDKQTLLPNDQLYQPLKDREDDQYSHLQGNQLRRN
EXPERIMENT NOTES: cell-based or functional assay
I'd appreciate it if you could supply CD4 EC50 (nM); CD69/CD25 on human T cells, plate-coated antibody values for the items below.
Quick reminder: number only, in nM, skip the unit.

# CD4 EC50 (nM); CD69/CD25 on human T cells, plate-coated antibody of mAb 43 (antibody, V domains shown) VH: QAQLVQSGSELKKPGASVKVSCKASGYTFTKHSMNWVRQAPGQGLEWMGWINTNTGNPMYAQGFTGRFVFSLDTSVTTAYLQISSLKAEDTAVYYCAREGDYDFWSGFFNFDYWGQGTLVTVSS VL: DIQMTQSPSSLSASVGDRVTITCRASQGIRNDLGWYQQKPGKAPKRLIYAASSLQSGVPSRFSGSGSGAEFTLTISSLQPEDFATYYCLQHNSYPRTFGQGTKVEIK = 24.6

CD4 EC50 (nM); CD69/CD25 on human T cells, plate-coated antibody in this record for mAb 166 (antibody, V domains shown) VH: EVQLVESGGGLVKTGGSLRLSCVASGFSFKKAWMNWVRQAPGRGLEWVGRIKRNTDGGTTDYAAPVKGRFTLSRDDSKNMLYLQMNSLKTEDTAVYYCTTLDSSSLYVGYYYMDVWGKGTTVTVSS VL: DIQMTQSPSSVSASVGDRVTITCRASQDINNWLAWYQQKPGKAPKLLIYTASSLQSGVPSRFSGSGSGTDFTLTISSLQPEDFATYFCQQAHSLPITFGQGTRLEIT : 10.5

CD4 EC50 (nM); CD69/CD25 on human T cells, plate-coated antibody for mAb 127 (antibody, V domains shown) VH: EVQLVESGGGLVKTGGSHRLSCVASGFSFKKAWMNWVRQAPGKGLEWVGRIKRNSDGGTTDYAAPVKGRFILSRDDSKNTLYLQMNSLKTEDTAVYYCTTLDSSSWYVGYYYMDVWGKGTTVTVSS VL: DIQMTQSPSSVSASVGDRVTITCRASQDINNWLAWYQQKPGKAPKILIYTASNLQSGVPSRFSGSGSGTDFTLTISTLQPEDFATYFCQQAHGLPITFGQGTRLEIK is 10.2

Sample mAb 72 (antibody, V domains shown) VH: EVQLVDSGGGLVQPGGSLRLSCAASGFTFSSYWMSWVRQAPGKGLEWVANIKQDGSEKYYVDSVKGRFTISRDNVKNSLSLEMNSLRAEDTALYYCARDESSSWYWYFDLWGRGTLVTVSS VL: DIQMTQSPSTLSASVGDRVTITCRASQSISKWLAWYQQKPGKAPKLLIYKASSLENGVPSRFSGSGSGTEFTLTISSLQPDDFATYYCQQYSSYSRTFGQGTKVEIK ; CD4 EC50 (nM); CD69/CD25 on human T cells, plate-coated antibody observed: 16.4

Recorded CD4 EC50 (nM); CD69/CD25 on human T cells, plate-coated antibody (binder mAb 102 (antibody, V domains shown) VH: QVQLVESGGGVVQPGRSLRLSCAASGFSFRSYGMHWVRQAPGKGLEWVSVISYDGGNKYYADSVKGRFTISRDNSKNTLFLQMKSLRAEDTALYYCAKGGGTYWRGLFEYWGQGTLVTVSS VL: DIQLTQSPSFLSASVGDRVTITCRASQGISSYLAWYQKKPGKAPKLLIYAASTLHSGVPSRFSGGGSGTAFTLTISSLQPEDFATYYCQQLNNYPFTFGPGTKVDIK ): 15.6

Sample mAb 133 (antibody, V domains shown) VH: EVQLVESGGGLVKTGGSLRLSCVASGFSFKKAWMSWVRQAPGKGLEWVGRIKRNTDGGTADYAAPVKGRFTLSRDDSKKTLFLQMNSLKTEDSAVYYCVTLDSSSYYVGYYYMDVWGKGTTVTVSS VL: DIQMTQSPSSVSASVGDRVSITCRASQDINNWLAWYQQKPGKAPKLLIYTASSLQSGVPSRFSGSGSGTDFTLTIGSLQPEDFATYYCQQAHSLPITFGQGTRLEIK ; CD4 EC50 (nM); CD69/CD25 on human T cells, plate-coated antibody observed: 13.9
